# credit: patent EP0457318B1

TARGET_OF_ASSAY: Brain AChE (Rattus norvegicus, UniProt P37136)
Construct: corpora striata dissected free, weighed and homogenized in 19 volumes; from tissue; host or cells: rat corpora striata homogenate (male Wistar rats)
Sequence (P37136 32-614): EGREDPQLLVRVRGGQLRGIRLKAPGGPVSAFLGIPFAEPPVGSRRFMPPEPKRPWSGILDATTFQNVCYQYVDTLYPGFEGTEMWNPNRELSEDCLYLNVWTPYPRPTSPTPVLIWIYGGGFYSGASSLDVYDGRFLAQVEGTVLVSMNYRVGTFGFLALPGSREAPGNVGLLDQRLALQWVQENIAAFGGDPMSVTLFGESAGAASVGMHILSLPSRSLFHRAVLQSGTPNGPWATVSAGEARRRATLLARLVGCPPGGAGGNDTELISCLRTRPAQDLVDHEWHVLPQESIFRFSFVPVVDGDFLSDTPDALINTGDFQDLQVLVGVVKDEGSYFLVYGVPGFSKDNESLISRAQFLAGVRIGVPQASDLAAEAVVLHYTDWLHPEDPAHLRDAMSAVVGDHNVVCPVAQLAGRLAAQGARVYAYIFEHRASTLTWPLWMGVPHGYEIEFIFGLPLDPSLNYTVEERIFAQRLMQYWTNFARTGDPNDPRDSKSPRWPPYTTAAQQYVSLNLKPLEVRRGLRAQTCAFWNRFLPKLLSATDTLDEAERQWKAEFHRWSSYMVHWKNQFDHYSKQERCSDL
METHOD_DESCRIPTION: In vitro inhibition of acetylcholinesterase activity in rat striatum (modified Ellman method)
Type: biochemical
pIC50: −log10 of the molar value.

| MOLECULE | TARGET_OF_ASSAY | pIC50 |
| --- | --- | --- |
| CN1CCC2(C)c3cc(C(=O)C(=O)OCCc4ccccc4)ccc3N(C)C12 (stereo not shown) | Brain AChE (Rattus norvegicus, UniProt P37136) | 5.04 |

----------
TARGET_OF_ASSAY: Brain AChE (Rattus norvegicus, UniProt P37136)
Construct: corpora striata dissected free, weighed and homogenized in 19 volumes; from tissue; host or cells: rat corpora striata homogenate (male Wistar rats)
METHOD_DESCRIPTION: In vitro inhibition of acetylcholinesterase activity in rat striatum (modified Ellman method)
Type: biochemical
CONDITION_SET: rat striatum homogenate, preincubated 10 minutes at 37°C, 5 mM acetylthiocholine, pH 7.2; read-out: Inhibitory Concentration (IC50) Brain AChE
# IC50 values compiled below
MEASUREMENT_LABEL: IC50

| COMPOUND | RESULT |
| --- | --- |
| CCCCCOC(=O)C(=O)c1ccc2c(c1)C1(C)CCN(C)C1N2C (stereo not drawn) | 8 µM |
| CN1CCC2(C)c3cc(C(=O)C(=O)OCc4ccccc4)ccc3N(C)C12 (stereo not drawn) | 4.4 µM |
| CCCCOC(=O)C(=O)c1ccc2c(c1)C1(C)CCN(C)C1N2C (stereo not drawn) | 5.7 µM |
